The values you see were collected from ChEMBL document CHEMBL2218924.

Target: Cyclin-dependent kinase 5/CDK5 activator 1 (Homo sapiens) (UniProt Q00535+Q15078)
Sequence (Q00535 whole entry): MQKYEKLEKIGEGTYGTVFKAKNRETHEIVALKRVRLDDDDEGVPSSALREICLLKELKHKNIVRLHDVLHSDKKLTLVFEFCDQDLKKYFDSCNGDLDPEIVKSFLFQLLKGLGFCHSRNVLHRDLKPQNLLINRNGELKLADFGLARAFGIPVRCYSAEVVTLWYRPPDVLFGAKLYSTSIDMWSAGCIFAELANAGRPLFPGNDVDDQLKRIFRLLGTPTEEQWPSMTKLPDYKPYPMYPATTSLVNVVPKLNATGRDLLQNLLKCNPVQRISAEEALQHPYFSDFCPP
Sequence (Q15078 99-307 partner limits assumed): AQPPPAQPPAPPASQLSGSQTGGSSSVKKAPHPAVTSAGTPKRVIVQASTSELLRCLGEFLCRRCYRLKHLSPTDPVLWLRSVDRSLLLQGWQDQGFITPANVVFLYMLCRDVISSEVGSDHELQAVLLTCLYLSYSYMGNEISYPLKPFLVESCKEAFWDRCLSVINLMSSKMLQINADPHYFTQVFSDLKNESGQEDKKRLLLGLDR
Details: at 10 µM
Outcome Measure: residual activity (%)
Give bare numbers, in %.

- Compound: "Nc1n[nH]c2nc3ccccc3nc12"
  Outcome Measure: "residual activity"
  Reported: 41
- Compound: "COc1cc2nccc(Oc3ccc(NC(=S)NC(=O)c4ccccc4C)cc3)c2cc1OC"
  Outcome Measure: "residual activity"
  Reported: 86
- Compound: "COc1ccc(Cl)cc1NC(=O)Nc1cc(C)nc2ccccc12"
  Outcome Measure: "residual activity"
  Reported: 77
- Compound: "O=C1NC(=O)C(c2cn(CCCO)c3ncccc23)=C1c1cnccn1"
  Outcome Measure: "residual activity"
  Reported: 61
- Compound: "O=C1Cc2c([nH]c3ccc(Br)cc23)-c2ccccc2N1"
  Outcome Measure: "residual activity"
  Reported: 9

Need residual activity for each of these compounds.
1. CCCCc1c(-c2ccc(OC)cc2)[nH]c2nccnc12
2. O=C1C(Cl)=C(N2C(=O)CCC2=O)C(=O)c2ccccc21
3. O=C(CCCc1ccc(-c2ccccc2F)cc1)Nc1ccc(O)cc1

[38, 85, 99]

###

For each record, write down the corresponding residual activity.
Target: NUAK family SNF1-like kinase 1 (Homo sapiens) (UniProt O60285)
Sequence (O60285 whole entry): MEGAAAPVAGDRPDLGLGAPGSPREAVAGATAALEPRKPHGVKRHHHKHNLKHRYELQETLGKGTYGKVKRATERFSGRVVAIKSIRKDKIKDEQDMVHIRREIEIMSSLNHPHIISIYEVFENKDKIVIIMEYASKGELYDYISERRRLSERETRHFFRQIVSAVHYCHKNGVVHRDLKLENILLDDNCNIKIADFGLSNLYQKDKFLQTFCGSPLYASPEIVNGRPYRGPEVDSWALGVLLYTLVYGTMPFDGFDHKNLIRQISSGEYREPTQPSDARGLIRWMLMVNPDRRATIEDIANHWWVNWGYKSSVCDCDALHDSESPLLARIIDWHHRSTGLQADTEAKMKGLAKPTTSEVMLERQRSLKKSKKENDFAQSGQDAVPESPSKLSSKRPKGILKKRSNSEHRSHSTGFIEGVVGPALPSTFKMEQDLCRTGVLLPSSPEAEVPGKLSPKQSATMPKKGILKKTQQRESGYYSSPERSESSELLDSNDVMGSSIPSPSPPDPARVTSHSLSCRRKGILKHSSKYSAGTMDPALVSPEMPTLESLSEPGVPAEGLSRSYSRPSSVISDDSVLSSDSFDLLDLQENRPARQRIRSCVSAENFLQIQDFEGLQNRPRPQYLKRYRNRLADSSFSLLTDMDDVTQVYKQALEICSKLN
Settings: at 10 µM
Answers are plain numbers, in %.

Recorded residual activity, per entry:
- Chem Smiles: "COc1cc2c(cc1OC)-c1n[nH]c(Nc3cccc(F)c3)c1C2"
  Unit Abbreviation: "%"
  Reported: 68
- Chem Smiles: "O=C1NC(=O)C(c2cn(CCCn3ccnc3)c3ccccc23)=C1Nc1ccccc1"
  Unit Abbreviation: "%"
  Reported: 38
- Chem Smiles: "COc1cc2ncnc(Nc3cccc(Cl)c3)c2cc1OC"
  Unit Abbreviation: "%"
  Reported: 52

Need residual activity for each of these compounds.
1. CN(C)S(=O)(=O)c1ccc2c(c1)/C(=C/c1cc3c([nH]1)CCCC3)C(=O)N2
2. O=C(c1ccccc1)c1ccc(N2CCOCC2)cc1O
3. Nc1ncnc2[nH]nc(Nc3ccc(F)cc3)c12
4. Nc1ncnc2c1cnn2-c1ccccc1
5. O=S(=O)(NCCNC/C=C/c1ccc(Br)cc1)c1cccc2cnccc12

[3, 90, 90, 87, 11]

Need residual activity for each of these compounds.
1. CC(C)[C@H](CO)Nc1nc(Nc2cc(N)cc(Cl)c2)c2ncn(C(C)C)c2n1
2. COc1cc2nccc(Oc3ccc(NC(=S)NC(=O)c4ccccc4C)cc3)c2cc1OC

1. 13
2. 74

###

Target: Testis-specific serine/threonine-protein kinase 2 (Homo sapiens)
Details: at 10 µM
Outcome Measure: residual activity (%)
Numbers only, in %.

Recorded residual activity, per entry:
- Compound: "CCN(CC)CCNC(=O)c1c(C)[nH]c(/C=C2\\C(=O)Nc3ccc(Cl)cc32)c1C"
  residual activity / %: 26
- Compound: "Oc1cccc(-c2nc(N3CCOCC3)c3oc4ncccc4c3n2)c1"
  residual activity / %: 74
- Compound: "CCCC(=O)Oc1ccc2[nH]c(C(=O)c3cc4ccccc4[nH]3)cc2c1"
  residual activity / %: 96
- Compound: "N#C/C(=C1/Nc2ccccc2S1)c1ccnc(NCCc2cccnc2)n1"
  residual activity / %: 68

Need residual activity for each of these compounds.
1. Fc1ccc(-c2nc3n(c2-c2ccncc2)CCS3)cc1
2. O=C(NC(NC(=S)Nc1ccc(F)c([N+](=O)[O-])c1)C(Cl)(Cl)Cl)C(c1ccccc1)c1ccccc1 (stereo not given)
3. COc1cc2nccc(Oc3ccc(NC(=S)NC(=O)c4ccccc4C)cc3)c2cc1OC
4. O=c1cc(N2CCOCC2)oc2c1ccc1ccccc12
5. O=C1NC(=O)c2c1c1c3ccccc3[nH]c1n1cncc21
6. COc1ccc(Cl)cc1NC(=O)Nc1cc(C)nc2ccccc12

1: 86; 2: 101; 3: 81; 4: 78; 5: 85; 6: 88
